Target: Luciferin 4-monooxygenase (Photinus pyralis) (UniProt P08659); further: nearly all actives have a fitted effect of over 70% in size
Sequence (P08659 whole entry, looked up): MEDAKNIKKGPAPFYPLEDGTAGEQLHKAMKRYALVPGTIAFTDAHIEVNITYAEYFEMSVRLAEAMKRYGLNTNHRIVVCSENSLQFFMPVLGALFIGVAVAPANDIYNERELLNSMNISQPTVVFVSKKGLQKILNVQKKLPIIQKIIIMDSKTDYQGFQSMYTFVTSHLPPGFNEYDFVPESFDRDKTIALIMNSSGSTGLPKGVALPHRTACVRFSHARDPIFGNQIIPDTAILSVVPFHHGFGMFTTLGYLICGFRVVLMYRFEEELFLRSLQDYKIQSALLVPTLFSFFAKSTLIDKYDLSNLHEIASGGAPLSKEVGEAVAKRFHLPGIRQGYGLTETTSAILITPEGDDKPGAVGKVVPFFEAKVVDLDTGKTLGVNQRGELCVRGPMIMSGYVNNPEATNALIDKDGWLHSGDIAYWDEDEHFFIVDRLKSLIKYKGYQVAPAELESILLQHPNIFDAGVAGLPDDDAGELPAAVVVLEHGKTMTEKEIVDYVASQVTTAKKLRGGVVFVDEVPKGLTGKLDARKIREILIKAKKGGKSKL
Test: Firefly luciferase (FLuc-C-HiBiT) enzymatic inhibition screen - Functional assay
Conditions: purified FLuc-C-HiBiT enzyme, luciferin luminescence; series mostly up to 32.7 µM
The campaign covered roughly 1,300 compounds. About 560 (43%) were called active. Roughly 39% stayed inconclusive and do not appear here. The call rests on the fitted dose curve; in most records, active means well fitted inhibition curve with a large enough effect; inconclusive means small, poorly fitted or top-dose-only effect; inactive means flat fitted curve, though single readings scatter. So high a share suggests a set chosen from earlier hits. Only a sample is shown.
Classes used: active, inactive

compound=COc1ccc(CC(=O)Nc2ccc(-c3nc4ccccc4s3)c(C)c2)cc1 tested_target="Luciferin 4-monooxygenase (Photinus pyralis) (UniProt P08659)" class_assignment=inactive
compound=CCN(c1ncnc2c1cnn2-c1ccc(C)cc1)C1CCCCC1 tested_target="Luciferin 4-monooxygenase (Photinus pyralis) (UniProt P08659)" class_assignment=active
compound=COc1cccc(-c2nc3ccc(-c4ccc5c(c4)OCO5)cc3o2)c1OC tested_target="Luciferin 4-monooxygenase (Photinus pyralis) (UniProt P08659)" class_assignment=active
compound=CN1CCN(C[C@@H]2CN(C(=O)CCCc3ccccc3)C[C@@H]2CO)CC1 tested_target="Luciferin 4-monooxygenase (Photinus pyralis) (UniProt P08659)" class_assignment=inactive
compound=O=C([C@@H]1C[C@@H](O)[C@H](O)[C@@H]2NC(=S)N(c3ccc(OC(F)(F)F)cc3)[C@@H]21)N1CCCCC1 tested_target="Luciferin 4-monooxygenase (Photinus pyralis) (UniProt P08659)" class_assignment=inactive
compound=Cc1ccc(C(=O)Nc2ccc(-c3nc4ccccc4s3)c(O)c2)cc1 tested_target="Luciferin 4-monooxygenase (Photinus pyralis) (UniProt P08659)" class_assignment=inactive
compound=O=C(Nc1nc2c(s1)CCCC2)c1ccccc1F tested_target="Luciferin 4-monooxygenase (Photinus pyralis) (UniProt P08659)" class_assignment=active
compound=COc1ccc(-c2nc3ccccc3s2)cc1NC(=O)COc1ccccc1C tested_target="Luciferin 4-monooxygenase (Photinus pyralis) (UniProt P08659)" class_assignment=inactive
compound=CC(=O)NC1(C)CN(Cc2ccc(-c3ccc4c(ccn4C)c3)s2)C1 tested_target="Luciferin 4-monooxygenase (Photinus pyralis) (UniProt P08659)" class_assignment=active
compound="Cc1cccc(-c2cccc(NC(=O)C3CCCN(C(=O)CC(F)(F)F)C3)c2)c1 (stereo not drawn)" tested_target="Luciferin 4-monooxygenase (Photinus pyralis) (UniProt P08659)" class_assignment=inactive
compound=COc1ccc(C(=O)Nc2onc3c2CCCC3)cc1 tested_target="Luciferin 4-monooxygenase (Photinus pyralis) (UniProt P08659)" class_assignment=active
compound=COc1ccccc1OC1(C(=O)O)CCN(c2ncnc3nc[nH]c23)CC1 tested_target="Luciferin 4-monooxygenase (Photinus pyralis) (UniProt P08659)" class_assignment=inactive
compound="O=C(NCc1ccc(F)c(Cl)c1)C1CCN(C(=O)c2ncn3c2COC(c2ccccc2)C3)CC1 (stereo not drawn)" tested_target="Luciferin 4-monooxygenase (Photinus pyralis) (UniProt P08659)" class_assignment=active
compound=Fc1ccc(Nc2nc(-c3ccccc3F)no2)cc1 tested_target="Luciferin 4-monooxygenase (Photinus pyralis) (UniProt P08659)" class_assignment=active
compound="O=C(NCC1CC1)C1CCN(C(=O)c2ncn3c2COC(c2ccccc2)C3)CC1 (stereo not drawn)" tested_target="Luciferin 4-monooxygenase (Photinus pyralis) (UniProt P08659)" class_assignment=active
compound=COc1ccc(C)cc1NC(=O)Nc1cccc(-c2ccc(N3CCCCC3)nn2)c1 tested_target="Luciferin 4-monooxygenase (Photinus pyralis) (UniProt P08659)" class_assignment=active
compound="O=C(NCc1ccccc1)C1CCN(C(=O)c2ncn3c2COC(c2ccccc2)C3)CC1 (stereo not drawn)" tested_target="Luciferin 4-monooxygenase (Photinus pyralis) (UniProt P08659)" class_assignment=active
compound=CCC(CC)c1nn2cc(-c3ccccc3)nc2s1 tested_target="Luciferin 4-monooxygenase (Photinus pyralis) (UniProt P08659)" class_assignment=active
compound=Cc1ccc(-c2nc(C(=O)N3CCN(c4ccccn4)CC3)no2)cc1 tested_target="Luciferin 4-monooxygenase (Photinus pyralis) (UniProt P08659)" class_assignment=active
compound=CCOC(=O)C1CCN(C(=O)c2cccc3c2CCN3C(=O)Nc2ccccc2)CC1 tested_target="Luciferin 4-monooxygenase (Photinus pyralis) (UniProt P08659)" class_assignment=active
compound=COc1ccc(-c2ncc3c(n2)OCCN(CC2CC2)C3=O)cc1 tested_target="Luciferin 4-monooxygenase (Photinus pyralis) (UniProt P08659)" class_assignment=active
compound=CN(CCc1cn[nH]c1)c1ccc(-c2nc(-c3ccccc3F)no2)cn1 tested_target="Luciferin 4-monooxygenase (Photinus pyralis) (UniProt P08659)" class_assignment=active
compound=OCCN1CCN(c2nc(N3CCCCC3)c3cnn(-c4ccc(Cl)cc4)c3n2)CC1 tested_target="Luciferin 4-monooxygenase (Photinus pyralis) (UniProt P08659)" class_assignment=inactive
